System: MS2 coat protein
Experiment: apparent KD of MS2 coat protein; higher = weaker reporter binding
Settings: Eterna round: R107; input ligand: none
measurement label: apparent KD of MS2 coat protein

Return reported apparent KD of MS2 coat protein; argument: GCGUACGAUCGGGAUACCAGACAUUGCCGUUAGGGUGAACCUGAGGAACACCCAGGUUUUGUCCCUUGGCAGCCCGAUCGUACGC [ETB NP+V+V2 #8 Diff Apt, Same Structure] 19.6 nM

Return reported apparent KD of MS2 coat protein; argument: UGGCGAGAAGGAAGGAGCGUCAGCUGAGUCACAUGAGGAUCACCCAUGUAGGACAUGGUGUGACAGGUAGGUCGCCUUCUGCCCU [SS-ArgB18] 14.6 nM

Return reported apparent KD of MS2 coat protein; argument: "UGUAUGGACUGAAGGAGCGGGUAAUAAACCUGAGGAUCACCCAGGUAAUAGGCGAAAGCCGCCCAGGUAGGUCGCAGUCCAUACU" 13.5 nM

----------
Test system: MS2 coat protein
Test: apparent KD of MS2 coat protein; designed switch direction (-1 OFF switch, 1 ON switch): -1; higher = weaker reporter binding
Settings: input ligand: none
Class 1.0: apparent KD of MS2 coat protein at least 30 nM. Class 0.0: apparent KD of MS2 coat protein below 30 nM.

Answer whether apparent KD of MS2 coat protein of UAUUAGCAAGCAACUGGGUACAUGAGGAUCACCCAUGUGCUCGUCUUAUAAGGUACUGUGACGAAAUUCACGGUACC [mod--Eli13] (Eterna round: R97, puzzle: Sensor, turn-off variant 1) is greater than or equal to 30 nM. 0.0

Answer whether apparent KD of MS2 coat protein of GACCUAUAGGUAGGAUAUCAUUGCGAUUAGCUAUGAGAAGGACCACAUGAGGAUCACCCAUGUCCUCCAAUUAACCAUUUGGUC [Fiskers ExNg1 - 4] (Eterna round: R96, puzzle: Exclusion NG 1) is greater than or equal to 30 nM. 1.0

Answer whether apparent KD of MS2 coat protein of AAAUAGCUAGAGGAUAUUGGAUAGGAUUUAGUGCGAGAAGGCUAGACAUGAGGAUCACCCAUGUUGUGUUGGGA [EX6 #14] (Eterna round: R97, puzzle: Exclusion 6) is greater than or equal to 30 nM. 1.0

Answer whether apparent KD of MS2 coat protein of AAAGCAAAGACAGGAUAUCGACCCAGUGAUUUUCGUGCCGGAAACAUGAGGAUCACCCAUGUGUACGAGAAGGGUCAAAACAAC [Uslebeteat] (Eterna round: R96, puzzle: Exclusion NG 2) is greater than or equal to 30 nM. 0.0

Answer whether apparent KD of MS2 coat protein of AAUGAUUGACGAGGAUAUUGUGGUAAAACACGACGAGAAGGCGUCUGUCACAUGAGGAUCACCCAUGUGAGCUUUGUGGAUAGA [Ex NG1 #72] (Eterna round: R96, puzzle: Exclusion NG 1) is greater than or equal to 30 nM. 1.0

Answer whether apparent KD of MS2 coat protein of GCCUUAUGAGUCAGGAUAUACAAUAAAAUAAUUAAGUAGAAGGGACAUGAGGAUCACCCAUGUACAUUACAUUG [alecazam28] (Eterna round: R97, puzzle: Brourd's mod of Exclusion 4) is greater than or equal to 30 nM. 0.0

Answer whether apparent KD of MS2 coat protein of UUAAUGUGAGGAUAUCAGGUGUGCUAGCGUACUGGUACAUCUGAGAAGGCACAUGAGGAUCACCCAUGUUCCUU [JL-ex4-3.27 Brourd mod] (Eterna round: R96, puzzle: Exclusion 4) is greater than or equal to 30 nM. 0.0

Answer whether apparent KD of MS2 coat protein of ACAUGAGGAUCACCCAUGUGAAAAGAAUGGCUGACACAGAGAUAGGAUAUGCGUGCAUAUCUAACGCAGAAGGGUCAUGACUGG [Deportation 81 - Jieux - Exclusion NG 3] (Eterna round: R96, puzzle: Exclusion NG 3) is greater than or equal to 30 nM. 0.0

Answer whether apparent KD of MS2 coat protein of AGCCUGUAAUCCCUCAGACAUGAGGAUCACCCAUGUGGAUGUAAGGAUAUAGGUGCAAUUGCAAUCUAGAAGGUACGCCGUCAG [Eternabot solution 32] (Eterna round: R96, puzzle: Exclusion NG 3) is greater than or equal to 30 nM. 1.0

Answer whether apparent KD of MS2 coat protein of UUGUUGUAUGUAGGAUAUGCGUAUUAUUAUUAUGCAGAAGGACAUGAGGAUCACCCAUGUGUAUUAUUAUUAUAUAUUAUAUAU [Title] (Eterna round: R96, puzzle: Exclusion NG 1) is greater than or equal to 30 nM. 0.0

Answer whether apparent KD of MS2 coat protein of UGAGUGCUGCGAGGAUAUACAUGAGGAUCACCCAUGUGGUCCUGUGAGGCUUUGCCUCACAGGAUGUAGAAGGCGCAGUACUCU [JL ENG2 1.18] (Eterna round: R96, puzzle: Exclusion NG 2) is greater than or equal to 30 nM. 0.0

Answer whether apparent KD of MS2 coat protein of GUGUGCACGCUGCGAUCCUACAUGAGGAUCACCCAUGUGGUCUGGUGGCGUGGGUCACCGGACUUGGCUCGUCUUGG [salish99_S_TOV1_R5_077] (Eterna round: R97, puzzle: Sensor, turn-off variant 1) is greater than or equal to 30 nM. 1.0

Answer whether apparent KD of MS2 coat protein of UGUUUAUAUGAAGGAUAUACUUAACAUGAGGAUCACCCAUGUGGUGUUGUGAGUGAGUGAGUUUAGUAGAAGGUCAAGUAUUUU [JMF's solution 54] (Eterna round: R96, puzzle: Exclusion NG 2) is greater than or equal to 30 nM. 1.0

Answer whether apparent KD of MS2 coat protein of AUAGGCCGAGGAUAUGUAGCUAUGAACAUGAGGAUCACCCAUGUGAGUGUCGUGCGUAUUAUAGAAGGCGGUGCAU [EX5 B.14] (Eterna round: R97, puzzle: Exclusion 5) is greater than or equal to 30 nM. 0.0

Answer whether apparent KD of MS2 coat protein of CUUAACUCAGGAUAUGCGGCGACAAACAUGAGGAUCACCCAUGUAAAUUGGUGAACCUGAGCAGAAGGGAGUACAA [EX5 B.2] (Eterna round: R97, puzzle: Exclusion 5) is greater than or equal to 30 nM. 0.0

Answer whether apparent KD of MS2 coat protein of CCUGUGUAAGGAUAUGCCUGGCCGUGAGGCCAGAUUGAAUAGCAGAAGGUACAUGAGGAUCACCCAUGUACGGG [jl-ex4-4.61 ViennaUCT mod] (Eterna round: R97, puzzle: Exclusion 4) is greater than or equal to 30 nM. 1.0

Answer whether apparent KD of MS2 coat protein of GACACUCAUGUAAGUAUUUACAUGAGGAUCACCCAUGUACCACUAGAAGACUAGGGAACGAAACGAGCUGGCUGUCA [Eternabot (Original) Solution 6] (Eterna round: R97, puzzle: Sensor, turn-off variant 1) is greater than or equal to 30 nM. 1.0
